Field: pIC50. Provide a value for each of the molecules that follow.
// scale note: pIC50 = -log10(conc_M); give the bare number

Tell me reported pIC50 for O=c1[nH]c(=O)n(CCCCN2CC=C(c3ccccc3)CC2)c2ccccc12 , tested with Poly [ADP-ribose] polymerase 1 (Homo sapiens, UniProt P09874).
Sequence (P09874 whole entry): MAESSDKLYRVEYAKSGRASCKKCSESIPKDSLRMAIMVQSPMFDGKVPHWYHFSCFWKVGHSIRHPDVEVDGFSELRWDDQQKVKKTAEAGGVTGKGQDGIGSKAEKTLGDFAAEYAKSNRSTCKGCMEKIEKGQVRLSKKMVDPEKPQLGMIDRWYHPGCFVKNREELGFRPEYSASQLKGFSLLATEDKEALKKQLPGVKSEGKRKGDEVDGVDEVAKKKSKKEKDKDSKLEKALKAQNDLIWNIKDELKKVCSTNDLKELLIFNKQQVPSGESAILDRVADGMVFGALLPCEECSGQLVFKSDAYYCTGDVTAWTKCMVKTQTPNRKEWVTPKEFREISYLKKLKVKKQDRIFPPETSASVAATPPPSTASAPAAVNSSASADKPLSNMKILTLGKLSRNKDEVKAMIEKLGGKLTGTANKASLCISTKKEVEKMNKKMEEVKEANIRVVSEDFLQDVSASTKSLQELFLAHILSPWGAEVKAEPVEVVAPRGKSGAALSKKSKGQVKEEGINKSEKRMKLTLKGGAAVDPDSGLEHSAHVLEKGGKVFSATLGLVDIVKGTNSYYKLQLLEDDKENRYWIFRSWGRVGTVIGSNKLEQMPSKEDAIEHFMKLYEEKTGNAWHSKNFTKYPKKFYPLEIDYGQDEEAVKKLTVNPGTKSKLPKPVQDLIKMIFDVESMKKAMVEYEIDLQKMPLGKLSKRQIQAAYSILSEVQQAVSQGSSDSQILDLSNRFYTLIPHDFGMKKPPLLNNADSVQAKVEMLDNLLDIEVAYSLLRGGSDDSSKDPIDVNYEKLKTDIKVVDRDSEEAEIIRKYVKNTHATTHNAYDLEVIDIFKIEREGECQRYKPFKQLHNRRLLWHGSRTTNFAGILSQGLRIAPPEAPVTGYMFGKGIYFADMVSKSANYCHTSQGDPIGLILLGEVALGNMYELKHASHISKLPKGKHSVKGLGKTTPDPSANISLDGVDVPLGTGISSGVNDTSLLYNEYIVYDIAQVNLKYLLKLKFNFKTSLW
6.92

Tell me reported pIC50 for NC(=O)c1cccc2ncc(-c3ccccc3)nc12 [3-phenylquinoxaline-5-carboxamide] , tested with Poly [ADP-ribose] polymerase 1 (Homo sapiens, UniProt P09874).
6.88

Tell me reported pIC50 for N#Cc1ccc(-c2cnc3cccc(C(N)=O)c3n2)cc1 , tested with Poly [ADP-ribose] polymerase 1 (Homo sapiens, UniProt P09874).
7.00

Tell me reported pIC50 for COc1ccc(-c2cnc3cccc(C(N)=O)c3n2)cc1 , tested with Poly [ADP-ribose] polymerase 1 (Homo sapiens, UniProt P09874).
7.15

Tell me reported pIC50 for O=c1[nH]c2ccc(CCCN3CC=C(c4ccccc4)CC3)cc2c2ccccc12 , tested with Poly [ADP-ribose] polymerase 1 (Homo sapiens, UniProt P09874).
7.09

Tell me reported pIC50 for O=c1[nH]c(CCCN2CC=C(c3ccccc3)CC2)nc2ccccc12 , tested with Poly [ADP-ribose] polymerase 1 (Homo sapiens, UniProt P09874).
7.68

* * *

Field: IC50. Provide a value for each of the compounds that follow.
// return numeric value only (unit: nM, not printed)

Tell me reported IC50 for NC(=O)c1cccc2ncc(-c3ccc(Cl)cc3)nc12 , tested with Poly [ADP-ribose] polymerase 1 (Homo sapiens).
33

Tell me reported IC50 for NC(=O)c1cccc2ncc(-c3ccc(N)cc3)nc12 , tested with Poly [ADP-ribose] polymerase 1 (Homo sapiens).
87

Tell me reported IC50 for N#Cc1ccc(C2=CCN(CCCc3nc4c(Cl)cccc4c(=O)[nH]3)CC2)cc1 , tested with Poly [ADP-ribose] polymerase 1 (Homo sapiens).
3

Tell me reported IC50 for Cc1cccc2c(=O)[nH]c(CCCN3CC=C(c4ccc(F)cc4)CC3)nc12 , tested with Poly [ADP-ribose] polymerase 1 (Homo sapiens).
16

Tell me reported IC50 for O=c1[nH]c(CCCN2CC=C(c3ccccc3)CC2)nc2c(Cl)cccc12 , tested with Poly [ADP-ribose] polymerase 1 (Homo sapiens).
23

Tell me reported IC50 for O=c1[nH]nc(CCCCN2CC=C(c3ccccc3)CC2)c2ccccc12 , tested with Poly [ADP-ribose] polymerase 1 (Homo sapiens).
120

Tell me reported IC50 for O=c1[nH]c(CCCN2CC=C(c3ccccc3)CC2)nc2cccc(Cl)c12 , tested with Poly [ADP-ribose] polymerase 1 (Homo sapiens).
68

Tell me reported IC50 for O=c1[nH]nc(CCCCN2CC=C(c3ccc(F)cc3)CC2)c2ccccc12 , tested with Poly [ADP-ribose] polymerase 1 (Homo sapiens).
49

* * *

metric: IC50 (nM)
// return numeric value only (unit: nM, not printed)

Tell me reported IC50 for COc1ccc(-c2cnc3cccc(C(N)=O)c3n2)cc1 , tested with Poly [ADP-ribose] polymerase 2 (Mus musculus, UniProt O88554).
Sequence (O88554 whole entry): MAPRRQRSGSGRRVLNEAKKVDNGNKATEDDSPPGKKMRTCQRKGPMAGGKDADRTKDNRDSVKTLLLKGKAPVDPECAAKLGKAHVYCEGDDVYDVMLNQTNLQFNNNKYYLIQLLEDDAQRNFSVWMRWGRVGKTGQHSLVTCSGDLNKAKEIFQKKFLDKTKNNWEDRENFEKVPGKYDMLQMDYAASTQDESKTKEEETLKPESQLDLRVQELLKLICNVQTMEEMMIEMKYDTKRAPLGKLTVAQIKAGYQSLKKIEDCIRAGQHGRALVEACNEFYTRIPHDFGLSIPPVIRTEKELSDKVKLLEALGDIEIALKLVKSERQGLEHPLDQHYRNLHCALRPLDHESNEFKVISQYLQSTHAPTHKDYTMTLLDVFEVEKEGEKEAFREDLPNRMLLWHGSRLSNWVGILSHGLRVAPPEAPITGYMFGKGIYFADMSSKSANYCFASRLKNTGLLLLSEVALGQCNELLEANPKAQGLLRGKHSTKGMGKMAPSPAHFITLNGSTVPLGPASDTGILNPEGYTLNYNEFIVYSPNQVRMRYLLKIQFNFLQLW
8

Tell me reported IC50 for NC(=O)c1cccc2ncc(-c3ccc(N)cc3)nc12 , tested with Poly [ADP-ribose] polymerase 2 (Mus musculus, UniProt O88554).
9

Tell me reported IC50 for O=c1[nH]c(CCCN2CC=C(c3ccccc3)CC2)nc2cccc(Cl)c12 , tested with Poly [ADP-ribose] polymerase 2 (Mus musculus, UniProt O88554).
630

Tell me reported IC50 for NC(=O)c1cccc2ncc(-c3ccc(C(F)(F)F)cc3)nc12 , tested with Poly [ADP-ribose] polymerase 2 (Mus musculus, UniProt O88554).
11

Tell me reported IC50 for O=c1[nH]nc(CCCCN2CC=C(c3ccccc3)CC2)c2ccccc12 , tested with Poly [ADP-ribose] polymerase 2 (Mus musculus, UniProt O88554).
90

Tell me reported IC50 for O=c1[nH]c(CCCN2CCN(c3ccc(Cl)cc3)CC2)nc2ccccc12 , tested with Poly [ADP-ribose] polymerase 2 (Mus musculus, UniProt O88554).
300

Tell me reported IC50 for NC(=O)c1cccc2ncc(-c3ccc(Cl)cc3)nc12 , tested with Poly [ADP-ribose] polymerase 2 (Mus musculus, UniProt O88554).
7
